# key: entry, value: EC50, CreLuc assay, 0.5% hP
# Tested system: T1, human neuropeptide Y2 (NPY2) receptor (human, UniProt P49146 1-381)
# T1 sequence (looked up): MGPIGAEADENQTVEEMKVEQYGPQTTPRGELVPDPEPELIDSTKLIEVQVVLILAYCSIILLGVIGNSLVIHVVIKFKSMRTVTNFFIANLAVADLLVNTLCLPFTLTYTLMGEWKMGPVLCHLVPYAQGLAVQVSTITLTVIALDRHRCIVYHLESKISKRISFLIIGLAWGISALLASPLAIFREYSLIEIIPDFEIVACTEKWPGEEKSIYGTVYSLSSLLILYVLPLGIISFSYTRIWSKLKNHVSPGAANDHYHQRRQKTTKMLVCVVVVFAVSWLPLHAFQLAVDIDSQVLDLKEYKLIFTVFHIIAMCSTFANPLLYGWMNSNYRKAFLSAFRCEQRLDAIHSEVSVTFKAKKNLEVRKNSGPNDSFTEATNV
# Protocol notes: cell-based or functional assay
Starred links: 1 amine or outer side, 2 acyl side, 3 side chain; linkers in the order of their positions; H or OH if unused. Non-standard residues stand in square brackets, D forms with d. Groups on a side chain read outwards from the residue. No end group written: not given here. *: point of attachment. C20 diacid = O=C(O)CCCCCCCCCCCCCCCCCCC(=O)*; γGlu = O=C(O)[C@H](CCC(=O)[*:2])N[*:1]; εLys = N[C@@H](CCCCN[*:1])C(=O)[*:2]; Aib = CC(C)(N)C(=O)O
Measured property: EC50, CreLuc assay, 0.5% hP (nM)

>>> measured_value("YXEGTFTSDYSIXLEKQAQXAFVEWLIKGGPRYYASLRHYYNWLTRQRY (Aib at 2, 13, 20; K28 side chain: C20DA-gGlu-gGlu-gGlu-gGlu-gGlu-gGlu-eLys; C-terminal NH2) [Compound 62]")
13.6
>>> measured_value("Y[Aib]EGTFTSDYSI[Aib]LEKQAQ[Aib]AFVQWLIKGGPESGASLRHYYNWLTRQRY-NH2 (not fully specified (residue 28); also: TFA salt) [Compound 55]")
16
>>> measured_value("Y[Aib]EGTFTSDYSI[Aib]LEEEAQ[Aib]AFVQWLIK([εLys-εLys-γGlu-γGlu-γGlu-γGlu-γGlu-C20 diacid])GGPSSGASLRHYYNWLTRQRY-NH2 (also: TFA salt) [Compound 7]")
16.9
>>> measured_value("YXEGTFTSDYSIXLEKQAQXAFVQWLIKGGPSSGVSLRHYYNWLTRQRY (Aib at 2, 13, 20; K28 side chain: C20DA-gGlu-gGlu-gGlu-gGlu-gGlu-gGlu-eLys; C-terminal NH2) [Compound 47]")
7.9
>>> measured_value("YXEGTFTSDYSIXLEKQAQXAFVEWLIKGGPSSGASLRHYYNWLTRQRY (Aib at 2, 13, 20; NMeR 48; K28 side chain: C20DA-gGlu-gGlu-gGlu-gGlu-gGlu-gGlu-eLys; C-terminal NH2) [Compound 83]")
28.8
>>> measured_value("Y[Aib]EGTFTSDYSI[Aib]LEKQAQ[Aib]AFVEWLIKGGPESPASLRHYYNWLTRQRY-NH2 (not fully specified (residue 28); also: TFA salt) [Compound 64]")
17
>>> measured_value("YXEGTFTSDYSIXLEKQAQXAFVQWLIKGGPSSGESLRHYYNWLTRQRY (Aib at 2, 13, 20; K28 side chain: C20DA-gGlu-gGlu-gGlu-gGlu-gGlu-gGlu-eK; C-terminal NH2) [Compound 35]")
11.6
>>> measured_value("YXEGTFTSDYSIXLEKQAQXAFVEWLIKGGPSSAVSLRHYYNWLTRQRY (Aib at 2, 13, 20; K28 side chain: C20DA-gGlu-gGlu-gGlu-gGlu-gGlu-gGlu-eLys; C-terminal NH2) [Compound 33]")
9.93
>>> measured_value("Y[Aib]EGTFTSDYSI[Aib]LEKQAQ[Aib]AFVEWLIK([γGlu-γGlu-γGlu-γGlu-γGlu-γGlu-C20 diacid])GGGSEYVSLRHYYNWLTRQRY-NH2 (also: TFA salt) [Compound 65]")
10.9
>>> measured_value("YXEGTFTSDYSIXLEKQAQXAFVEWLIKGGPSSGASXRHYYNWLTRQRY (Aib at 2, 13, 20, 37; NMeR 48; K28 side chain: C20DA-gGlu-gGlu-gGlu-gGlu-gGlu-gGlu-eLys; C-terminal NH2) [Compound 39]")
26.9
